SUBJECT_OF_TEST: T1, TNFR1 (Homo sapiens, UniProt P19438)
T1 chain: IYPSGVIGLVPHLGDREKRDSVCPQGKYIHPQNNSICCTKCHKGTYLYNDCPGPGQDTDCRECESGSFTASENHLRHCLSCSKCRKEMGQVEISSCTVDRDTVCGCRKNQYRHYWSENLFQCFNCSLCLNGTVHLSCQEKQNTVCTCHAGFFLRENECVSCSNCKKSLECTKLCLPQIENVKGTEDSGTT
PROTOCOL_SUMMARY: yeast display SC50
// reported apparent Kd (screen) per item
Enter the number, and then the unit.

Return apparent Kd (screen) for the following binder: L79N (designed binder) SMEEEVEKAAKEYEKKKKEAIEKHLEKLKAKDKEAAERFLKELEEAAKEYAKDEAKTMSEEEAKRRAKKYKEKVLLSENSEEEQKEIKEAEEKLVRTILKYVEEAAK 12.5 nM

Next:
Return apparent Kd (screen) for the following binder: K52F (designed binder) SMEEEVEKAAKEYEKKKKEAIEKHLEKLKAKDKEAAERFLKELEEAAKEYAFDEAKTMSEEEAKRRAKKYKEKVLLSELSEEEQKEIKEAEEKLVRTILKYVEEAAK 1.05 nM

Return apparent Kd (screen) for the following binder: A51C (designed binder) SMEEEVEKAAKEYEKKKKEAIEKHLEKLKAKDKEAAERFLKELEEAAKEYCKDEAKTMSEEEAKRRAKKYKEKVLLSELSEEEQKEIKEAEEKLVRTILKYVEEAAK 0.446 nM

Return apparent Kd (screen) for the following binder: E72Q (designed binder) SMEEEVEKAAKEYEKKKKEAIEKHLEKLKAKDKEAAERFLKELEEAAKEYAKDEAKTMSEEEAKRRAKKYKQKVLLSELSEEEQKEIKEAEEKLVRTILKYVEEAAK 2.05 nM
